Below, each of the compounds is paired with its reported Average Incidence SD Away value.
Test system: MLO-Y4 osteocytes
experimental.details: High-throughput drug screening of primary cilia length and incidence
Assay type: cell-based
cond: 10 μM, 16 hours, triplicate; normalized to vehicle control; standard deviation away from the population average
Where a name gives a salt, the structure may show the parent alone.

compound: CCn1cc(C(=O)O)c(=O)c2cc(F)c(N3CCN(C)CC3)cc21 [Pefloxacin mesylate]
Average Incidence SD Away [SD]: 1.682

compound: Cc1ncc([N+](=O)[O-])n1CCO [Metronidazole (Flagyl), Metronidazole]
Average Incidence SD Away [SD]: 2.092

compound: CCC[S+]([O-])c1ccc2[nH]c(NC(=O)OC)nc2c1 (centres unmarked) [Albendazole Oxide (Ricobendazole), Albendazole Oxide]
Average Incidence SD Away [SD]: 2.017

compound: CC(C)NCC(O)c1ccc(O)c(O)c1 (centres unmarked) [Isoprenaline hydrochloride]
Average Incidence SD Away [SD]: 1.623

compound: C#CCC(Cc1cnc2nc(N)nc(N)c2n1)c1ccc(C(=O)N[C@@H](CCC(=O)O)C(=O)O)cc1 (some centres unmarked) [Pralatrexate(Folotyn), Pralatrexate]
Average Incidence SD Away [SD]: 2.193

compound: COC(=O)C1=CO[C@@H](O[C@@H]2O[C@H](CO)[C@@H](O)[C@H](O)[C@H]2O)[C@@H]2C(CO)=CC[C@H]12 [Geniposide]
Average Incidence SD Away [SD]: 4.335

compound: Cc1cc(Cl)ccc1OCCCC(=O)NO [Droxinostat]
Average Incidence SD Away [SD]: 2.26

compound: CN/C(=N/CCSCc1nc[nH]c1C)NC#N [Cimetidine (Tagamet), Cimetidine]
Average Incidence SD Away [SD]: 1.562
